Experiment: AUC in male rat at 10 mg/kg, po after 7 days
Type: ADME, organism-based
Design: dose 10 mg/kg, route oral
Details: plasma
Metric: AUC at 168 h
Kindly format the answer as number then unit.

## Task What value of measured AUC at 168 h is listed for Cc1cc(Cn2c(=O)c(C3=CS(=O)(=O)c4cc(NS(C)(=O)=O)ccc4N3)c(O)c3cc(F)ccc32)ccc1F ?
## Result 0.0344 µg·h/mL

====

Assay: Cmin (24 hrs) in male rat at 100 mg/kg, po after 1 day
Format: ADME, organism-based
Parameters: dose 100 mg/kg, route oral
Details: in vivo, read-out: Cmin
Metric: concentration at 24 h (ng/mL)
Report the value in ng/mL with no unit label.

## Task What value of measured concentration at 24 h is listed for Cc1cc(Cn2c(=O)c(C3=CS(=O)(=O)c4cc(NS(C)(=O)=O)ccc4N3)c(O)c3cc(F)ccc32)ccc1F ?
## Result 2.8
